Origin of the recorded values: patent US11612661B2

Can you tell me IC50 for the items I'm about to list?
# experimental_target: human α9α10 nAChR (Homo sapiens, UniProt Q9GZZ6+Q9UGM1)
# Sequence (Q9UGM1 26-479 limits assumed): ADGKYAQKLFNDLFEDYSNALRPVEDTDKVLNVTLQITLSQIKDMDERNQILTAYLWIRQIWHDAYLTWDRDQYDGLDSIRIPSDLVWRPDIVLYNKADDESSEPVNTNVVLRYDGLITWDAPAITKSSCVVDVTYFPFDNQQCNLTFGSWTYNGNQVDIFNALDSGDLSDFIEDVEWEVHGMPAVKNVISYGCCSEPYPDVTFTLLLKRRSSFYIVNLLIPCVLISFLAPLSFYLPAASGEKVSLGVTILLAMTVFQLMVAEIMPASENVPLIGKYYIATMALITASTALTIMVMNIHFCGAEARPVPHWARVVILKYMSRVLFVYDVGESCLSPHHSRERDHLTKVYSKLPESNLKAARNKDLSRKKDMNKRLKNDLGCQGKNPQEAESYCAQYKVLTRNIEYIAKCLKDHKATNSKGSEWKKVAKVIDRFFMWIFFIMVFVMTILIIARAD
# Sequence (Q9GZZ6 25-450 limits assumed): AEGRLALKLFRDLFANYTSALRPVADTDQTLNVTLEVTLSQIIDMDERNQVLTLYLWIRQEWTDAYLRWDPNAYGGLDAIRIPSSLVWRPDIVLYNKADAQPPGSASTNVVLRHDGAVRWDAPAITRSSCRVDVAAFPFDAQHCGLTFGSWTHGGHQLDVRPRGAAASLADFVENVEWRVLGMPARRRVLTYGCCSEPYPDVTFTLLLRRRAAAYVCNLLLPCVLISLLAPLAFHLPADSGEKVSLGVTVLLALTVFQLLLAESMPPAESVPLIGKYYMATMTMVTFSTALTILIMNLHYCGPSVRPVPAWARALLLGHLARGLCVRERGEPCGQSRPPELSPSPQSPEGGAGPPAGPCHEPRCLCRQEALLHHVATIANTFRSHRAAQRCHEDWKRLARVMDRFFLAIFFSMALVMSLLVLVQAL
# protocol: cell-based
Bridge positions count the residues as written; N and C are the ends. Square brackets hold non-standard residues; d marks the D form. Triazole bridges read from a SMILES are 1,4-linked. Peptide text beside a SMILES is read from it. Orn(N3) = [N-]=[N+]=NCCC[C@H](N)C(=O)O; Aha = [N-]=[N+]=NCC[C@H](N)C(=O)O; Cit = NC(=O)NCCC[C@H](N)C(=O)O; Hpra = C#CCC[C@H](N)C(=O)O; Pra = C#CC[C@H](N)C(=O)O; Sar = CNCC(=O)O
A number alone suffices; assume nM.

Task: Identify measured IC50 corresponding to C[C@@H](O)[C@@H]1NC(=O)[C@@H]2CCn3cc(nn3)CC[C@@H](C(=O)N[C@@H](Cc3ccc(O)cc3)C(=O)O)NC(=O)[C@H](CCC(N)=O)NC(=O)[C@H](Cc3c[nH]c4ccccc34)NC(=O)[C@H](CCCNC(N)=O)NC(=O)[C@H](CSSC[C@H](NC(=O)CN)C(=O)N2)NC(=O)[C@H](CCCNC(=N)N)NC(=O)[C@@H]2CCCN2C(=O)[C@H](CC(=O)O)NC1=O [Ii] (H-GC[Aha]TDPRC[Cit]WQ[Hpra]Y-OH; disulfide 2-8; triazole 3-12)
Output: 3.4

Task: Identify measured IC50 corresponding to C[C@@H](O)[C@@H]1NC(=O)[C@@H]2Cc3cn(nn3)CCC[C@@H](C(=O)N[C@@H](Cc3ccc(O)cc3)C(=O)N(C)CC(=O)O)NC(=O)[C@H](CCC(N)=O)NC(=O)[C@H](Cc3c[nH]c4ccccc34)NC(=O)[C@H](CCCNC(N)=O)NC(=O)[C@H](CSSC[C@H](NC(=O)CN)C(=O)N2)NC(=O)[C@H](CCCNC(=N)N)NC(=O)[C@@H]2CCCN2C(=O)[C@H](CC(=O)O)NC1=O [In] (H-GC[Pra]TDPRC[Cit]WQ[Orn(N3)]Y[Sar]-OH; disulfide 2-8; triazole 3-12)
Output: 37

Task: Identify measured IC50 corresponding to C[C@@H](O)[C@@H]1NC(=O)[C@@H]2CCc3cn(nn3)CC[C@@H](C(=O)N[C@@H](Cc3ccc(O)cc3)C(=O)O)NC(=O)[C@H](CCC(N)=O)NC(=O)[C@H](Cc3c[nH]c4ccccc34)NC(=O)[C@H](CCCNC(N)=O)NC(=O)[C@H](CSSC[C@H](NC(=O)CN)C(=O)N2)NC(=O)[C@H](CCCNC(=N)N)NC(=O)[C@@H]2CCCN2C(=O)[C@H](CC(=O)O)NC1=O [Ih] (H-GC[Hpra]TDPRC[Cit]WQ[Aha]Y-OH; disulfide 2-8; triazole 3-12)
Output: 8
